Provenance of the data: ChEMBL document CHEMBL3396952

- assay.method.text: Inhibition of N-terminus His-tagged Francisella tularensis subsp. Tularensis Schu4 Fab1 expressed in Escherichia coli […] (DE3) cells assessed as conversion of crotonyl-CoA and NADH to butyryl-CoA and NAD+ preincubated for 30 mins by fluorescence analysis
- Set-up: species or system Francisella tularensis subsp. tularensis SCHU S4
Recorded Ki, one value per entry.
Write the number in nM without appending the unit.

1. c1cc2c(cc1Cn1cnc3cc4c(cc31)CCCC4)OCO2 | 330
2. COc1ccc(Cn2cnc3cc4c(cc32)CCCC4)cc1OC | 1430

Reported Ki, molecule COc1ccc(Cn2cnc3cc4c(cc32)CCCC4)cc1C : ____ 130
